# TARGET OR TEST SYSTEM: T1, ALKTG (human ALK amino acids 648-985) (human, UniProt Q9UM73 648-985, N-linked glycans; EndoH-trimmed for crystals and SEC-MALLS)
# T1 construct: Fc-His6 tag removed by caspase 3; also called ALK TG supradomain
# T1 sequence (Q9UM73 648-985 limits assumed): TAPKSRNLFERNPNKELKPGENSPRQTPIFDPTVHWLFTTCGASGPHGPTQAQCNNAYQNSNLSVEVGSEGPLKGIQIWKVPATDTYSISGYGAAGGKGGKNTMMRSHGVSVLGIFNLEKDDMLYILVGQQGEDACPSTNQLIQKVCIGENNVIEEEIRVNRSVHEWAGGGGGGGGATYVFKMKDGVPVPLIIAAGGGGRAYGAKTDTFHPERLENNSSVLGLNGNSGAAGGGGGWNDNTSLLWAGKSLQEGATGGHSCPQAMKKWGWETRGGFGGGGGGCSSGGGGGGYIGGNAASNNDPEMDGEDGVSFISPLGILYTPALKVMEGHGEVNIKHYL
# EXPERIMENT SUMMARY: ITC at 310 K, ALKAL1 (33 µM) titrated with ALKTG (330 µM), one-site model
READOUT: Kd (nM)
Your answer should be a plain number; it is taken to be in nM.

Request: Query: Kd; subject: ALKAL1 (truncated, residues 57-129) (ligand, human, UniProt Q6UXT8 57-129, looked up, range 57-129; Tag-free in ITC, SEC-MALLS, crystals and Ba/F3 assays; also called ALKAL1^WT; WT ALKAL1) PSGSRSAEIFPRDSNLKDKFIKHFTGPVTFSPECSKHFHRLYYNTRECSTPAYYKRCARLLTRLAVSPLCSQT
Result: 2500
